Just for reference, ChEMBL document CHEMBL3588778 is where these values come from.

System Name: C-C chemokine receptor type 2 (Homo sapiens, UniProt P41597)
Sequence (P41597 whole entry): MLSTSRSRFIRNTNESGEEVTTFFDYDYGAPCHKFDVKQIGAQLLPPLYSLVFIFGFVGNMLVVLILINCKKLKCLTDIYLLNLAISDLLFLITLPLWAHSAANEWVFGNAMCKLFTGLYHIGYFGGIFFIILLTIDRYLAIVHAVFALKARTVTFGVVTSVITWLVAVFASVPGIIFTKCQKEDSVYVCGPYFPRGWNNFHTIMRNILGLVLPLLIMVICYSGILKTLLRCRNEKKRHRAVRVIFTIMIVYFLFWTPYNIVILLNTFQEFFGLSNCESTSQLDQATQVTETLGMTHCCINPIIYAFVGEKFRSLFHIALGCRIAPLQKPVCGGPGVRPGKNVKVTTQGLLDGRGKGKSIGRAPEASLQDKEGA
Metric: Ki (nM)
# number only, unit nM dropped from output

Query string: Item under review: Cc1ccc(-c2ccc3c(c2)C=C(C(=O)Nc2ccc(C[N+](C)(C)C4CCOCC4)cc2)CCC3)cc1 . Reported Ki?
Result string: 2

----------
System Name: C-C chemokine receptor type 2 (Mus musculus, UniProt P51683)
Sequence (P51683 whole entry): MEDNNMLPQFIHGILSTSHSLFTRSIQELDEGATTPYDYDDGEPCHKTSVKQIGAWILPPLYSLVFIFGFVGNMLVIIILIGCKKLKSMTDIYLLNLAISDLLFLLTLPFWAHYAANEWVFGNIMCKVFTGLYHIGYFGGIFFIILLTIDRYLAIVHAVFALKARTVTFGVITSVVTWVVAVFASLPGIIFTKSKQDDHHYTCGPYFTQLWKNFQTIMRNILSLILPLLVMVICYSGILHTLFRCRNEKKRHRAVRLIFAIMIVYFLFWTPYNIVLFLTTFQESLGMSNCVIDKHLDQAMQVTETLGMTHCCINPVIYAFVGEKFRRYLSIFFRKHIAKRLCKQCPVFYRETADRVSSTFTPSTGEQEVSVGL
Assay Comment: Antagonist activity against mouse CCR2B expressed in human U2OS cells co-expressing beta-arrestin assessed as inhibition of mouse CCL2-induced beta-arrestin recruitment pre-incubated for 10 mins before mouse CCL2 stimulation for 90 mins by luminescence based assay
The compounds listed here are annotated with their pIC50.
Lab note — pIC50 values are minus log10 of concentrations in M.

| Compound | pIC50 |
| --- | --- |
| COc1ccc2c(c1)CCOC21CCN(CCCC(=O)NCc2cc(C(F)(F)F)cc(C(F)(F)F)c2)CC1 | 4.74 |

Query string: Item under review: O=C(NCc1cc(F)cc(C(F)(F)F)c1)C(CCN1CCC2(CC1)OCCc1ccccc12)c1ccc(F)cc1 (stereo not drawn) . Reported pIC50?
Result string: 5.44

Query string: Request: Cc1ccc(-c2ccc3c(c2)C=C(C(=O)Nc2ccc(C[N+](C)(C)C4CCOCC4)cc2)CCC3)cc1
Result string: 4.64

Query string: Request: CC1Cc2ccccc2C2(CCN(CCC(C(=O)NCc3cc(F)cc(C(F)(F)F)c3)c3ccc(F)cc3)CC2)O1 (stereo not drawn)
Result string: 5.10

Query string: Request: O=C(NCc1cc(C(F)(F)F)cc(C(F)(F)F)c1)C(CCN1CCC2(CC1)OCCc1ccccc12)C1CC1 (stereo not drawn)
Result string: 5.48

Query string: Request: CC1Cc2ccccc2C2(CCN(CCCC(=O)NCc3cc(C(F)(F)F)cc(C(F)(F)F)c3)CC2)O1 (stereo not drawn)
Result string: 5.10

Query string: Request: O=C(NCc1cc(C(F)(F)F)cc(C(F)(F)F)c1)C(CCN1CCC2(CC1)OCCc1ccccc12)c1ccc(F)cc1 (stereo not drawn)
Result string: 4.95
